# Assay comment: Pharmacokinetic experiment in cynomolgus monkeys
# Format: in vivo, cynomolgus monkey
# Experimental parameters: male, cynomolgus monkey, plasma, po, 20 mg/kg, oral 20 mg/kg, Mean (n=3)
Assay readout: MRT inf (h)
Report the figure in h without appending any unit label.

## Input Need MRT inf, item O=C(O)c1ccc2nc(CN3CCC(c4cccc(OCc5ccc(C6COC6)cc5F)n4)CC3)n(C[C@@H]3CCO3)c2c1
## Output 6.71

----------
# Assay comment: Metabolic stability in (human) liver microsomes
# Type: in vitro ADME
# Experimental parameters: pH 7.4, test concentration 1 μM
Assay readout: half-life at 1 μM (h)
Give the number; h is assumed, so skip it.

Molecule	Unit abbrev	Value
O=C(O)c1ccc2nc(CN3CCC(c4cccc(OCc5ccc(C6COC6)cc5Cl)n4)CC3)n(C[C@@H]3CCO3)c2c1	h	2.06

## Input Please look up its half-life at 1 μM: O=C(O)c1ccc2nc(Cc3ccc(-c4cccc(OCc5ccc(C6COC6)cc5F)n4)cc3F)n(C[C@@H]3CCO3)c2c1
## Output 1.05

## Input Which half-life at 1 μM value belongs to O=C(O)c1ccc2nc(CN3CCC4=C(COCc5ccc(OCc6ccc(C7COC7)cc6F)nc54)C3)n(C[C@@H]3CCO3)c2c1 ?
## Output 1.74

## Input Could you share which half-life at 1 μM value was measured for COc1cc(C2COC2)ccc1COc1cccc(C2CCN(Cc3nc4ccc(C(=O)O)cc4n3C[C@@H]3CCO3)CC2)n1 ?
## Output 2.56

## Input Can you look up the measured half-life at 1 μM of N#Cc1ccc(COc2cccc(C3CCN(Cc4nc5ccc(C(=O)O)cc5n4C[C@@H]4CCO4)CC3)n2)c(F)c1 [Compound 20, reference compound] for me?
## Output 1.87

## Input May I ask what half-life at 1 μM has been recorded for O=C(O)c1ccc2nc(CN3CCC(c4cccc(OCc5ccc(C6COC6)cn5)n4)CC3)n(C[C@@H]3CCO3)c2c1 ?
## Output 0.717

## Input # query: half-life at 1 μM of entry O=C(O)c1ccc2nc(CN3CCC4c5nc(OCc6ccc(C7COC7)cc6F)ccc5COCC4C3)n(C[C@@H]3CCO3)c2c1 (single isomer, unassigned)
## Output 1.2

## Input I would be grateful if you could share the reported half-life at 1 μM for O=C(O)c1ccc2nc(CN3CCC(c4cccc(OCc5ccc(C6COC6)cc5F)n4)CC3)n(C[C@@H]3CCO3)c2c1 .
## Output 2.17

// data source = patent US11981666B2
